Tested on: DON/Acetyl-DON production by Fusarium graminearum
assay summary: microbe, parasite or virus in culture
Type: cell-based
condition summary: at 50 μM
readout name: Inhibition of DON/AcDON in %

Write down the reported Inhibition of DON/AcDON in % (system: DON/Acetyl-DON production by Fusarium graminearum) of O=C(Nc1cc(-c2c(-c3ccc(F)cc3)nn3c2OCCC3)ccn1)C(=O)N1CCCCC1
90%

Write down the reported Inhibition of DON/AcDON in % (system: DON/Acetyl-DON production by Fusarium graminearum) of CCC(=O)Nc1cc(-c2c(-c3ccc(F)cc3)nn3c2O[C@H](C)C[C@@H]3C)ccn1
100%

Write down the reported Inhibition of DON/AcDON in % (system: DON/Acetyl-DON production by Fusarium graminearum) of CCC(C)C(=O)Nc1cc(-c2c(-c3ccc(F)cc3)nn3c2OCCC3)ccn1 (centres unmarked)
94%

Write down the reported Inhibition of DON/AcDON in % (system: DON/Acetyl-DON production by Fusarium graminearum) of CSCC(=O)Nc1cc(-c2c(-c3ccc(F)cc3F)nn3c2OCCC3)ccn1
100%

Write down the reported Inhibition of DON/AcDON in % (system: DON/Acetyl-DON production by Fusarium graminearum) of CC(=O)Nc1cc(-c2c(-c3ccc(F)cc3)nn3c2OCC3)ccn1
98%

----------
assay summary: Determination of log P values by HPLC on a reverse phase column (C18), EEC-Directive 79/831 Annex V.A8 (Methods A, B, C)
Type: physicochemical
condition summary: reverse phase C18 HPLC column, pH 2.7, major isomer of the diastereoisomer mixture; read-out: Log P (pH 2.7), major isomer
readout name: chromatographic logP
Please state the value as a number alone, without comment.

Supply recorded chromatographic logP for CC1Oc2c(Br)c(-c3ccc(F)cc3)nn2C1C (stereo not shown) [[IV-8]] here.
3.39

----------
Tested on: DON/Acetyl-DON production by Fusarium graminearum
assay summary: microbe, parasite or virus in culture
Type: cell-based
condition summary: at 50 μM
readout name: Inhibition of DON/AcDON in % (%)
Respond numerically; units are % and should not be typed.

Write down the reported Inhibition of DON/AcDON in % (system: DON/Acetyl-DON production by Fusarium graminearum) of CCC(C)C(=O)Nc1cc(-c2c(-c3ccc(F)cc3F)nn3c2OCCC3)ccn1 (stereo not drawn)
99

Write down the reported Inhibition of DON/AcDON in % (system: DON/Acetyl-DON production by Fusarium graminearum) of O=C(Nc1cc(-c2c(-c3ccc(F)cc3)nn3c2OCCC3)ccn1)C1CC2CCC1C2 (stereo not drawn)
98

Write down the reported Inhibition of DON/AcDON in % (system: DON/Acetyl-DON production by Fusarium graminearum) of CCC(=O)N(C(=O)CC)c1cc(-c2c(-c3ccc(F)cc3)nn3c2OCCC3)ccn1
100

Write down the reported Inhibition of DON/AcDON in % (system: DON/Acetyl-DON production by Fusarium graminearum) of CCC(C)C(=O)Nc1cc(-c2c(-c3ccccc3)nn3c2OCCC3)ccn1 (stereo not drawn)
100

Write down the reported Inhibition of DON/AcDON in % (system: DON/Acetyl-DON production by Fusarium graminearum) of O=C(Nc1cc(-c2c(-c3ccc(F)cc3F)nn3c2OCCC3)ccn1)C1CCOCC1
100

Write down the reported Inhibition of DON/AcDON in % (system: DON/Acetyl-DON production by Fusarium graminearum) of CCC(=O)Nc1cc(-c2c(-c3ccc(F)cc3)nn3c2OCCC3)ccn1
100

Write down the reported Inhibition of DON/AcDON in % (system: DON/Acetyl-DON production by Fusarium graminearum) of O=C(Nc1cc(-c2c(-c3ccccc3)nn3c2OCCC3)ccn1)C1CCOCC1
100

Write down the reported Inhibition of DON/AcDON in % (system: DON/Acetyl-DON production by Fusarium graminearum) of O=C(Nc1cc(-c2c(-c3ccc(F)cc3)nn3cccnc23)ccn1)C1CC1
70

Write down the reported Inhibition of DON/AcDON in % (system: DON/Acetyl-DON production by Fusarium graminearum) of O=C(Nc1cc(-c2c(-c3ccc(F)cc3)nn3c2OCCC3)ccn1)C1SCCS1
96

Write down the reported Inhibition of DON/AcDON in % (system: DON/Acetyl-DON production by Fusarium graminearum) of CCC(=O)Nc1cc(-c2c(-c3ccc(F)cc3F)nn3c2OCCC3)ccn1
99

Write down the reported Inhibition of DON/AcDON in % (system: DON/Acetyl-DON production by Fusarium graminearum) of CC(C)C(=O)Nc1cc(-c2c(-c3cccs3)nn3c2OC[Si](C)(C)C3)ccn1
99

Write down the reported Inhibition of DON/AcDON in % (system: DON/Acetyl-DON production by Fusarium graminearum) of CCC(=O)Nc1cc(-c2c(-c3ccccc3)nn3ccoc23)ccn1
95

Write down the reported Inhibition of DON/AcDON in % (system: DON/Acetyl-DON production by Fusarium graminearum) of CCC(=O)Nc1cc(-c2c(-c3ccc(F)cc3)nn3ccoc23)ccn1
99

Write down the reported Inhibition of DON/AcDON in % (system: DON/Acetyl-DON production by Fusarium graminearum) of CCOC(=O)Nc1cc(-c2c(-c3ccccc3)nn3c2OCCC3)ccn1
100

Write down the reported Inhibition of DON/AcDON in % (system: DON/Acetyl-DON production by Fusarium graminearum) of CCC(=O)N(C(=O)CC)c1cc(-c2c(-c3ccc(F)cc3F)nn3c2OCCC3)ccn1
97

Write down the reported Inhibition of DON/AcDON in % (system: DON/Acetyl-DON production by Fusarium graminearum) of CC(C)CC(=O)Nc1cc(-c2c(-c3ccc(F)cc3F)nn3c2OCCC3)ccn1
99

Write down the reported Inhibition of DON/AcDON in % (system: DON/Acetyl-DON production by Fusarium graminearum) of CC(C)C(=O)Nc1cc(-c2c(-c3ccc(F)cc3)nn3c2OCCC3C)ccn1 (stereo not drawn)
99

Write down the reported Inhibition of DON/AcDON in % (system: DON/Acetyl-DON production by Fusarium graminearum) of O=C(Nc1cc(-c2c(-c3ccc(F)cc3)nn3c2OCCC3)ccn1)C1CCOCC1
99

----------
assay summary: Determination of log P values by HPLC on a reverse phase column (C18), EEC-Directive 79/831 Annex V.A8 (Methods A, B, C)
Assay type: physicochemical
condition summary: Method A: HPLC, reverse phase C18, acetonitrile (0.1% formic acid)/water (0.09% formic acid) gradient
Exercise: for every item that follows, state its recorded LogP.
Please state the value as a number alone, without comment.

Supply recorded LogP for CCC(=O)N(C(=O)CC)c1cc(-c2c(-c3ccc(F)cc3)nn3c2OCCC3)ccn1 here.
2.74

Supply recorded LogP for CCC(=O)N(C(=O)C1CC1)c1cc(-c2c(-c3ccc(F)cc3)nn3c2OCCC3)ccn1 here.
2.77

Supply recorded LogP for CCC(=O)N(C(C)=O)c1cc(-c2c(-c3ccc(F)cc3)nn3c2OCCC3)ccn1 here.
2.4

Supply recorded LogP for CCC(=O)Nc1cc(-c2c(-c3ccc(F)cc3)nn3c(C)coc23)ccn1 here.
1.86

Supply recorded LogP for CCC(=O)Nc1cc(-c2c(-c3ccc(F)cc3)nn3c2OCCC3)ccn1 here.
1.46

Supply recorded LogP for CCC(=O)Nc1cc(-c2c(-c3ccc(F)cc3)nn3c2OC(C)C3C)ccn1 (centres unmarked) here.
1.67

Supply recorded LogP for CCC(=O)Nc1cc(-c2c(-c3ccc(F)cc3)nn3c2O[C@H](C)C[C@H]3C)ccn1 here.
1.84

Supply recorded LogP for CCC(=O)Nc1cc(-c2c(-c3ccc(F)cc3)nn3c2OCC(F)(F)C3)ccn1 here.
1.9

Supply recorded LogP for CC(C)C(=O)Nc1cc(-c2c(-c3ccc(F)cc3)nn3c2OCCC3C)ccn1 (centres unmarked) here.
1.86

Supply recorded LogP for CCC(=O)Nc1cc(-c2c(-c3ccc(F)cc3)nn3c(CC)coc23)ccn1 here.
2.23

Supply recorded LogP for CCC(=O)Nc1cc(-c2c(-c3ccccc3)nn3ccoc23)ccn1 here.
1.46

Supply recorded LogP for CCC(=O)N(C(=O)CC)c1cc(-c2c(-c3ccc(F)cc3F)nn3c2OCCC3)ccn1 here.
2.68

Supply recorded LogP for CCC(=O)Nc1cc(-c2c(-c3ccc(F)cc3)nn3c2O[C@H](C)C[C@@H]3C)ccn1 here.
1.74

Supply recorded LogP for CCC(=O)Nc1cc(-c2c(-c3ccc(F)cc3)nn3ccoc23)ccn1 here.
1.61

----------
Exercise: for every item that follows, state its recorded LogP.
assay summary: Determination of log P values by HPLC on a reverse phase column (C18), EEC-Directive 79/831 Annex V.A8 (Methods A, B, C)
Assay type: physicochemical
condition summary: Method B (HPLC, reverse phase C18)
Please state the value as a number alone, without comment.

Supply recorded LogP for O=C(CCc1ccccc1)Nc1cc(-c2c(-c3ccc(F)cc3F)nn3c2OCCC3)ccn1 here.
2.23

Supply recorded LogP for O=C(Nc1cc(-c2c(-c3ccc(F)cc3)nn3c2OCCC3)ccn1)C1CCOCC1 here.
1.37

Supply recorded LogP for CC1(C(=O)Nc2cc(-c3c(-c4ccc(F)cc4)nn4c3OCCC4)ccn2)CCCC1 here.
2.23

Supply recorded LogP for O=C(Nc1cc(-c2c(-c3ccc(F)cc3F)nn3c2OCCC3)ccn1)C1CCOCC1 here.
1.39
